target: T1, human PrRP receptor GPR10 (human, UniProt P49683 1-370)
T1 construct: whole, on cells; also called GPR10 human receptor transfected in CHO cells; human GPR10 receptor
T1 sequence (looked up): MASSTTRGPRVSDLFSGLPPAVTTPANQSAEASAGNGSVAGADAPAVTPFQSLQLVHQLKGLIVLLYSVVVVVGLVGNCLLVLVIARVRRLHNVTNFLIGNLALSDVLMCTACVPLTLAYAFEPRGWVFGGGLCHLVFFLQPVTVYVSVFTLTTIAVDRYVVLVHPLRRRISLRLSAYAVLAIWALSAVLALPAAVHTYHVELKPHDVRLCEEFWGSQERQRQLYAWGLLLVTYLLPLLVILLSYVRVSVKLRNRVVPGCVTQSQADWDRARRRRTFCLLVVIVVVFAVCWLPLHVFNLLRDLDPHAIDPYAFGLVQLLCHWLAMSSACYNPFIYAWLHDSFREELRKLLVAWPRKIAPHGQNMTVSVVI
procedure_summary: competition with 125I-human PrRP31, CHO cells with human GPR10
Square brackets hold non-standard residues; d marks the D form. Ends that are not written are not given here. * marks the point of attachment. 1Nal = N[C@@H](Cc1cccc2ccccc12)C(=O)O; Palmitoyl = CCCCCCCCCCCCCCCC(=O)*; Lauroyl = CCCCCCCCCCCC(=O)*; Nle = CCCC[C@H](N)C(=O)O
measurement_name: pKi
Keep in mind that pKi stands for -log10 of concentration in molar terms.

Recorded pKi, per entry:
>>> df
                                     binder  measured_value
0  TPDINPAWYTGRGIRPVGRF-NH2 (synthetic peptide) [Rat PrRP20]            8.25
1  Palmitoyl-SRAHQHS[Nle]ETRTPDINPAWYTGRGIRPVGR[1Nal]-NH2 [analog no. 12]            8.37
2  TPDINPAWYASRPFRPVGRF-NH2 [analog no. 33]            8.76

Lab note: next binder to report on.
input: State the recorded pKi for this entry: Lauroyl-SRAHQHS[Nle]ETRTPDINPAWYTGRGIRPVGRF-NH2 [analog no. 6]
output: 8.92
